target.of.assay: Apis mellifera nicotinic acetylcholine receptor Am-nAChRα7 (nAChR α7 subunit, SEQ ID NO: 7), expressed with ric3 (Apis mellifera, UniProt A0ACM8Q2V8)
Sequence (A0ACM8Q2V8 21-555): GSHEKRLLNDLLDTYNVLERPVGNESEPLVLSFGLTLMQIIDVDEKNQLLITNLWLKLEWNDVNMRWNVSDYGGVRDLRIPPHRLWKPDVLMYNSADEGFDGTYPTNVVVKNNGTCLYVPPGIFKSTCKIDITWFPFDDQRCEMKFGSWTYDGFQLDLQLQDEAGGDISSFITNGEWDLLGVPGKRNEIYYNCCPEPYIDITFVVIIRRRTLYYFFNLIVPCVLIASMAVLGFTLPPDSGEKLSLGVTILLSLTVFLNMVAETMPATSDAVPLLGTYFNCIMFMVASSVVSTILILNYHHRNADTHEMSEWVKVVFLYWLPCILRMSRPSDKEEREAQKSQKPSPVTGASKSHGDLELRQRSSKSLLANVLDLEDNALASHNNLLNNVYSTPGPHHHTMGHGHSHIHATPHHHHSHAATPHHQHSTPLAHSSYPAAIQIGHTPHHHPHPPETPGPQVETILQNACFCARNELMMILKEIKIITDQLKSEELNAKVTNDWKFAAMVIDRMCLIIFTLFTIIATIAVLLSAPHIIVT
test: Two-electrode voltage-clamp dose-response on Xenopus laevis oocytes expressing the nAChRα7 subunit (with ric3)
parameter.measured: EC50

Any idea what EC50 was measured for CN/C(=N\[N+](=O)[O-])NCc1cnc(Cl)s1 [clothianidin] ?
~10 µM
